src = PubChem BioAssay

- assay.comment: Primary imaging screen for DUSP6 inhibitors that restore phospho-Erk in transfected HeLa cells, chemical complementation (AID 609)
- condition.label: HeLa MKP-3 transfected, phospho-Erk imaging KS statistic; measured here: nuclear pErk red intensity z-score; at 10 µM; stronger effect = higher value; cells stimulated with TPA for 15 min
Would you mind sorting the entries by z-score according to these classes? group A (below -0.6), group B (-0.6 to below 0.5), group C (0.5 or more)

compound: COC(=O)C1C(=O)NCC1c1ccccc1 (stereo unspecified)
assigned.category: group A
--
compound: O=P(O)(c1ccccc1)c1ccccc1O
assigned.category: group C

Qu. Would you mind sorting `C1COC(NC(C2CC2)C2CC2)=N1` into the appropriate category?
Ans. group B

Qu. // bin(item) where item = CN1[C@@H]2CC(OC(=O)[C@H](CO)c3ccccc3)C[C@H]1[C@@H]1O[C@@H]12 (stereo partly specified)
Ans. group A

Qu. // return the class label for `CC1(C)S[C@@H]2[C@H](NC(=O)[C@H](N)c3ccccc3)C(=O)N2[C@H]1C(=O)O`
Ans. group C

Qu. Pick a category. Item: `Cc1cc(C)n(C(=O)CNC(=O)c2cccs2)n1`
Ans. group A

Qu. Which class does CCCC1O[C@@H]2C[C@H]3[C@@H]4CCC5=CC(=O)C=C[C@]5(C)[C@H]4[C@@H](O)C[C@]3(C)[C@]2(C(=O)CO)O1 (stereo partly specified) fall in?
Ans. group B
